Values from patent US12195506B2

- measurementTarget: HLA-A*01:01 (Homo sapiens, UniProt P04439, A114D/A174V/A182V/D101N/D185E/E176A/E190D/L180R/Q94H/R68K/S129P/T187R/V100A/V91M/W191G)
- experimentalDetails: MHC binding assay: UV-ligand exchange, ELISA of stabilized MHC complexes (peptide exchange yield)
- conditionDetails: binding to HLA-A*01:01, UV-ligand exchange
assayMetric: Peptide exchange

>  <substance>
297 (RLDEAMISY; listed as Homo sapiens) [compound 297]

>  <Peptide exchange>
+++ (>50 = +++)

$$$$
>  <substance>
205 (RMQEGSEVY; listed as Homo sapiens) [compound 205]

>  <Peptide exchange>
++ (>20% = ++)

$$$$
>  <substance>
101 (SITDVDFIY; listed as Homo sapiens) [compound 101]

>  <Peptide exchange>
++ (>20% = ++)

$$$$
>  <substance>
94 (KPSAVKDSIY; listed as Homo sapiens) [compound 94]

>  <Peptide exchange>
++ (>20% = ++)

$$$$
>  <substance>
37 (MTSTEQSLYY; listed as Homo sapiens) [compound 37]

>  <Peptide exchange>
+++ (>50 = +++)

$$$$

Fill blank: measured Peptide exchange of the substance 198 (KLTDYINANY; listed as Homo sapiens) [compound 198] is ____.
++ (>20% = ++)

Fill blank: measured Peptide exchange of the substance 79 (ASDLEPRELLSY; listed as Homo sapiens) [compound 79] is ____.
+++ (>50 = +++)

Fill blank: measured Peptide exchange of the substance 149 (PIMSSSQALY; listed as Homo sapiens) [compound 149] is ____.
++ (>20% = ++)

Fill blank: measured Peptide exchange of the substance 184 (KTIQEVAGY; listed as Homo sapiens) [compound 184] is ____.
++ (>20% = ++)

====

- measurementTarget: HLA-A*01:01 (Homo sapiens, UniProt P04439, A114D/A174V/A182V/D101N/D185E/E176A/E190D/L180R/Q94H/R68K/S129P/T187R/V100A/V91M/W191G)
- experimentalDetails: MHC binding assay: UV-ligand exchange, ELISA of stabilized MHC complexes (peptide exchange yield)
- conditionDetails: binding to HLA-A*01:01, UV-ligand exchange
assayMetric: Peptide exchange

Study these solved cases before continuing.
>  <substance>
313 (VTDGTHTDFY; listed as Homo sapiens) [compound 313]

>  <Peptide exchange>
+++ (>50 = +++)

$$$$
>  <substance>
214 (VQDPSLPVY; listed as Homo sapiens) [compound 214]

>  <Peptide exchange>
++ (>20% = ++)

$$$$
>  <substance>
271 (VAEPPVVCSY; listed as Homo sapiens) [compound 271]

>  <Peptide exchange>
++ (>20% = ++)

$$$$
>  <substance>
239 (SSERGSPIEKY; listed as Homo sapiens) [compound 239]

>  <Peptide exchange>
+++ (>50 = +++)

$$$$
>  <substance>
327 (IMLSVDQHLY; listed as Homo sapiens) [compound 327]

>  <Peptide exchange>
+++ (>50 = +++)

$$$$

Fill blank: measured Peptide exchange of the substance 146 (LCATVCGTEQY; listed as Homo sapiens) [compound 146] is ____.
++ (>20% = ++)

Fill blank: measured Peptide exchange of the substance 338 (YSPDSFNVSW; listed as Homo sapiens) [compound 338] is ____.
++ (>20% = ++)

====

- measurementTarget: HLA-A*01:01 (Homo sapiens, UniProt P04439, A114D/A174V/A182V/D101N/D185E/E176A/E190D/L180R/Q94H/R68K/S129P/T187R/V100A/V91M/W191G)
- experimentalDetails: MHC binding assay: UV-ligand exchange, ELISA of stabilized MHC complexes (peptide exchange yield)
- conditionDetails: binding to HLA-A*01:01, UV-ligand exchange
assayMetric: Peptide exchange

>  <substance>
314 (PPEANSLQGALY; listed as Homo sapiens) [compound 314]

>  <Peptide exchange>
++ (>20% = ++)

$$$$
>  <substance>
81 (YSDLHTPGRY; listed as Homo sapiens) [compound 81]

>  <Peptide exchange>
+++ (>50 = +++)

$$$$
>  <substance>
195 (YTADNEMGYY; listed as Homo sapiens) [compound 195]

>  <Peptide exchange>
+++ (>50 = +++)

$$$$
>  <substance>
257 (KSEMNVNMKY; listed as Homo sapiens) [compound 257]

>  <Peptide exchange>
++++ (>75% = ++++)

$$$$
>  <substance>
324 (RTGIFPYRF; listed as Homo sapiens) [compound 324]

>  <Peptide exchange>
++ (>20% = ++)

$$$$

Fill blank: measured Peptide exchange of the substance 302 (FYLSTPENYHY; listed as Homo sapiens) [compound 302] is ____.
+++ (>50 = +++)

Fill blank: measured Peptide exchange of the substance 185 (NSDESADSEPHKY; listed as Homo sapiens) [compound 185] is ____.
++++ (>75% = ++++)

Fill blank: measured Peptide exchange of the substance 14 (QSEKEPGQQY; listed as Homo sapiens) [compound 14] is ____.
+++ (>50 = +++)

Fill blank: measured Peptide exchange of the substance 263 (DCMDTEGSYM; listed as Homo sapiens) [compound 263] is ____.
++ (>20% = ++)

====

- measurementTarget: HLA-A*01:01 (Homo sapiens, UniProt P04439, A114D/A174V/A182V/D101N/D185E/E176A/E190D/L180R/Q94H/R68K/S129P/T187R/V100A/V91M/W191G)
- experimentalDetails: MHC binding assay: UV-ligand exchange, ELISA of stabilized MHC complexes (peptide exchange yield)
- conditionDetails: binding to HLA-A*01:01, UV-ligand exchange
assayMetric: Peptide exchange

>  <substance>
180 (AQISDTGRY; listed as Homo sapiens) [compound 180]

>  <Peptide exchange>
++ (>20% = ++)

$$$$
>  <substance>
148 (GTKQWVHARY; listed as Homo sapiens) [compound 148]

>  <Peptide exchange>
+ (>10% =+)

$$$$
>  <substance>
89 (EVYDGREHSAY; listed as Homo sapiens) [compound 89]

>  <Peptide exchange>
++ (>20% = ++)

$$$$
>  <substance>
383 (PPDHAVGRTKY; listed as Homo sapiens) [compound 383]

>  <Peptide exchange>
++ (>20% = ++)

$$$$
>  <substance>
284 (TCSHTFVYY; listed as Homo sapiens) [compound 284]

>  <Peptide exchange>
++ (>20% = ++)

$$$$

Fill blank: measured Peptide exchange of the substance 105 (VVFDKSDLAKY; listed as Homo sapiens) [compound 105] is ____.
++ (>20% = ++)

Fill blank: measured Peptide exchange of the substance 384 (RFRSITQSYY; listed as Homo sapiens) [compound 384] is ____.
+ (>10% =+)

Fill blank: measured Peptide exchange of the substance 209 (EADPFLKYL; listed as Homo sapiens) [compound 209] is ____.
++ (>20% = ++)

====

- measurementTarget: HLA-A*01:01 (Homo sapiens, UniProt P04439, A114D/A174V/A182V/D101N/D185E/E176A/E190D/L180R/Q94H/R68K/S129P/T187R/V100A/V91M/W191G)
- experimentalDetails: MHC binding assay: UV-ligand exchange, ELISA of stabilized MHC complexes (peptide exchange yield)
- conditionDetails: binding to HLA-A*01:01, UV-ligand exchange
assayMetric: Peptide exchange

Study these solved cases before continuing.
>  <substance>
301 (ESQTCASDY; listed as Homo sapiens) [compound 301]

>  <Peptide exchange>
+++ (>50 = +++)

$$$$
>  <substance>
390 (FSEPFHLIVSY; listed as Homo sapiens) [compound 390]

>  <Peptide exchange>
++++ (>75% = ++++)

$$$$
>  <substance>
18 (RSDPVSLRY; listed as Homo sapiens) [compound 18]

>  <Peptide exchange>
++++ (>75% = ++++)

$$$$
>  <substance>
117 (SPAKQFNIY; listed as Homo sapiens) [compound 117]

>  <Peptide exchange>
+++ (>50 = +++)

$$$$
>  <substance>
40 (TSDQLGYSY; listed as Homo sapiens) [compound 40]

>  <Peptide exchange>
+++ (>50 = +++)

$$$$

Continue with the substance presented below.
Fill blank: measured Peptide exchange of the substance 173 (QSTTGVSHY; listed as Homo sapiens) [compound 173] is ____.
+++ (>50 = +++)

====

- measurementTarget: HLA-A*01:01 (Homo sapiens, UniProt P04439, A114D/A174V/A182V/D101N/D185E/E176A/E190D/L180R/Q94H/R68K/S129P/T187R/V100A/V91M/W191G)
- experimentalDetails: MHC binding assay: UV-ligand exchange, ELISA of stabilized MHC complexes (peptide exchange yield)
- conditionDetails: binding to HLA-A*01:01, UV-ligand exchange
assayMetric: Peptide exchange

Study these solved cases before continuing.
>  <substance>
382 (YEPATMEQY; listed as Homo sapiens) [compound 382]

>  <Peptide exchange>
++ (>20% = ++)

$$$$
>  <substance>
255 (WELDSLEY; listed as Homo sapiens) [compound 255]

>  <Peptide exchange>
++ (>20% = ++)

$$$$
>  <substance>
256 (HAFESNNFIY; listed as Homo sapiens) [compound 256]

>  <Peptide exchange>
++ (>20% = ++)

$$$$
>  <substance>
252 (DTTSHTYLQY; listed as Homo sapiens) [compound 252]

>  <Peptide exchange>
++ (>20% = ++)

$$$$

Fill blank: measured Peptide exchange of the substance 347 (SADHPGLTF; listed as Homo sapiens) [compound 347] is ____.
++ (>20% = ++)

Fill blank: measured Peptide exchange of the substance 365 (FVDTKVPEH; listed as Homo sapiens) [compound 365] is ____.
++ (>20% = ++)

Fill blank: measured Peptide exchange of the substance 216 (NSMLDPLVY; listed as Homo sapiens) [compound 216] is ____.
++++ (>75% = ++++)

Fill blank: measured Peptide exchange of the substance 329 (NTDSMTLNNTAY; listed as Homo sapiens) [compound 329] is ____.
++++ (>75% = ++++)

Fill blank: measured Peptide exchange of the substance 309 (EVDRNLIQY; listed as Homo sapiens) [compound 309] is ____.
+++ (>50 = +++)

Fill blank: measured Peptide exchange of the substance 345 (NTMDAVPRIDHY; listed as Homo sapiens) [compound 345] is ____.
++++ (>75% = ++++)

Fill blank: measured Peptide exchange of the substance 24 (NLDHYTNAY; listed as Homo sapiens) [compound 24] is ____.
+++ (>50 = +++)

Fill blank: measured Peptide exchange of the substance 178 (TQRTSFQFY; listed as Homo sapiens) [compound 178] is ____.
++ (>20% = ++)
